Assay Procedure: in vitro
Conditions: rat, gh3-tre-luc cells, AC50 (uM) modified / 1000
Counter-ions that a name gives are not always drawn.
Recorded CC50 at 24 h values for a group of compounds are listed next.

| Compound | CC50 at 24 h |
| --- | --- |
| O=C[C@H](O)[C@@H](O)[C@@H](O)[C@H](O)CO | > 50 µM |
| CC(CO)(CO)C(=O)O | > 90 µM |
| CC(C)CCCCCCCOC(=O)c1ccc(C(=O)OCCCCCCCC(C)C)c(C(=O)OCCCCCCCC(C)C)c1 [Triisodecyl trimellitate] | > 80 µM |
| Cc1ncc(CO)c(CO)c1O | > 50 µM |
| CCCCCCCCCCCC(C)=O | > 90 µM |
| CC[C@@]1(O)C[C@H](O[C@H]2C[C@H](N(C)C)[C@H](O[C@H]3C[C@H](O)[C@H](O[C@H]4CCC(=O)[C@H](C)O4)[C@H](C)O3)[C@H](C)O2)c2c(cc3c(c2O)C(=O)c2c(O)cccc2C3=O)[C@H]1C(=O)OC [Aclarubicin hydrochloride] | 0.114 µM |
| Cc1cnc(C2=NC(=O)C(C)(C(C)C)N2)c(C(=O)O)c1 (stereo not drawn) | > 90 µM |
| Cc1cccc(Nc2ccncc2S(=O)(=O)NC(=O)NC(C)C)c1 [Torsemide] | > 20 µM |
| O=C1/C(=C/c2cccs2)CCC/C1=C\c1cccs1 | > 50 µM |
| O=C(O)Cc1ccc(CCNS(=O)(=O)c2ccc(Cl)cc2)cc1 | > 50 µM |
| CCc1cc(C2=C(C(=O)O)N(c3ccccc3C(F)(F)F)S(=O)(=O)c3ccccc32)cc2c1OCO2 [Fandosentan potassium salt] | 8.29 µM |
| NC(N)=NCCCCN=C(N)N [1,1'-Tetramethylenediguanidine sulfate] | > 50 µM |
| O=S(=O)(O)c1ccccc1/C=C/c1ccc(-c2ccc(/C=C/c3ccccc3S(=O)(=O)O)cc2)cc1 [Disodium 4,4'-bis(2-sulfostyryl)biphenyl] | > 80 µM |
| CC(C)(C)C(=O)CCc1ccc(Cl)cc1 | > 90 µM |
| COc1cc([N+](=O)[O-])ccc1N | 40.9 µM |
| NS(=O)(=O)Cc1noc2ccccc12 [Zonisamide] | > 50 µM |
| Cc1ccc(O)c2ncccc12 | 4.67 µM |
| CC(CCC(=O)O)(c1ccc(O)cc1)c1ccc(O)cc1 | > 90 µM |
| CCn1c2ccccc2c2cc([N+](=O)[O-])ccc21 | > 90 µM |
| CC(CN1CC(=O)NC(=O)C1)N1CC(=O)NC(=O)C1 (stereo not drawn) | > 90 µM |
| COc1c(Br)cc(Br)c(C)c1Br | > 90 µM |
| Oc1ccc(CCNCCCCCCNCCc2ccccc2)cc1O | 37.1 µM |
| O=C(O)c1cccc(Cl)c1Cl | > 90 µM |
| CC(C)NCC(O)c1ccccc1Cl (stereo not drawn) [Clorprenaline hydrochloride] | > 50 µM |
| CCCCCCCCS(=O)(=O)Cl [1-Octanesulfonyl chloride] | > 90 µM |
| CCOC(=O)c1ccc(OC(=O)CCCCCNC(=N)N)cc1 [Gabexate mesilate] | > 20 µM |
| C[Se]CC[C@H](N)C(=O)O | > 50 µM |
| CCC1(c2cnc[nH]2)Cc2ccccc2C1 [Atipamezole hydrochloride] | > 50 µM |
| C=N[C@@H](C(=O)N[C@@H]1C(=O)N2[C@@H]1SC(C)(C)[C@@H]2C(=O)O)c1ccccc1 [Metampicillin sodium] | > 50 µM |
| CCCCP(CCCC)CCCC | > 90 µM |
